System: TK-10 renal
experiment_summary: NCI-60 one-dose screen, 48 h
test_parameters: 10 µM unless noted
Compounds without any hit were thinned out: in the full panel of roughly 83,000, 20% have a hit. The source made the active and inactive calls. Rule for the calls: active = growth percent below 10; inactive = the rest.
Outcomes: active, inactive

>  <molecule>
CC[C@H](C)[C@H](NC(=O)CN(C)C)C(=O)N(C)[C@H](C[C@@H](OC(C)=O)c1nc(C(=O)NC23CC(C(=O)OC)(C2)C3)cs1)C(C)C

>  <class_label>
inactive

$$$$
>  <molecule>
CC1(C)CN=C(NN=C(/C=C/c2ccc(C(F)(F)F)cc2)/C=C/c2ccc(C(F)(F)F)cc2)NC1

>  <class_label>
active

$$$$
>  <molecule>
O=[P+](O)c1cccnc1

>  <class_label>
inactive

$$$$
>  <molecule>
CC(=O)Nc1nc2c(s1)C1=CC[C@H]3[C@@H]4CC[C@H](OC(C)=O)[C@@]4(C)CC[C@@H]3[C@@]1(C)CC2

>  <class_label>
inactive

$$$$
>  <molecule>
O=c1c2ccccc2nc(-c2ccccc2Cl)n1-c1nnc(C(F)(F)F)s1

>  <class_label>
inactive

$$$$
>  <molecule>
Cc1cc2c(cc1-c1ccnc(/C=C/C(=O)O)c1)C(C)(C)CCC2(C)C

>  <class_label>
inactive

$$$$
>  <molecule>
COc1ccc(O)c2c(=O)c3c(OC)cc4c(c3oc12)[C@@H]1C=CO[C@@H]1O4

>  <class_label>
inactive

$$$$
>  <molecule>
C=C[Se]CC(=O)/C=C/c1ccccc1

>  <class_label>
inactive

$$$$
>  <molecule>
C#COc1cccc(Nc2ncnc3cc(NC(=O)CF)ccc23)c1

>  <class_label>
inactive

$$$$
>  <molecule>
Cc1cc(C(C)(C)C)ccc1O

>  <class_label>
inactive

$$$$
>  <molecule>
CCCCCCCCCCCCCCCCCC1OCC(COC(=O)O[C@@H](C(=O)O[C@H]2C[C@@]3(O)[C@@H](OC(=O)c4ccccc4)[C@@H]4[C@]5(OC(C)=O)CO[C@@H]5C[C@H](O)[C@@]4(C)C(=O)[C@H](OC(C)=O)C(=C2C)C3(C)C)[C@@H](NC(=O)c2ccccc2)c2ccccc2)O1 (some centres undefined)

>  <class_label>
inactive

$$$$
>  <molecule>
CCC1(NC(=O)c2cc(F)c(F)c(F)c2F)C(=O)NC(=O)N(C(C)C)C1=O (centres undefined)

>  <class_label>
inactive

$$$$
>  <molecule>
O=Cc1cn(Cc2ccccc2)c2ccccc12

>  <class_label>
inactive

$$$$
>  <molecule>
CC(C)COC(=O)Cc1ccccc1

>  <class_label>
inactive

$$$$

----------
Tested on: LOX IMVI melanoma
experiment_summary: NCI-60 one-dose screen, 48 h (100 = growth as untreated, 0 = no growth, -100 = all killed)
test_parameters: 10 µM unless noted
This is part of a sample that, as a whole, favours compounds with a hit. Of some 83,000 tested, about 20% had one in any assay.

>  <structure_string>
OCCN=Cc1c[nH]c2ccccc12

>  <growth, %>
95.2

$$$$
>  <structure_string>
N#CCN(CC#N)[N+](=O)[O-]

>  <growth, %>
109

$$$$
>  <structure_string>
O=C(O)c1cc([N+](=O)[O-])cc([N+](=O)[O-])c1

>  <growth, %>
97

$$$$
>  <structure_string>
CO[C@H]1[C@H](O[C@@H]2C[C@@H]3C/C=C/C(=O)O[C@@H](CO)C[C@H](O)[C@@H]4C[C@H](C)[C@H](C/C=C\C=C\[C@H](C)C[C@H](C2)O3)O4)O[C@@H](C)[C@H](O)[C@H]1O

>  <growth, %>
59.7

$$$$

----------
Tested on: HCC-2998 colon
experiment_summary: NCI-60 one-dose screen, 48 h (100 = growth as untreated, 0 = no growth, -100 = all killed)
test_parameters: 10 µM unless noted
Method: Growth inhibition of the HCC-2998 human tumor cell line is measured as a screen for anti-cancer activity. Cells are grown in 96 well plates and exposed to the test compound for 48 hours. Compounds are tested at a single concentration, which is 10^-5 M for most compounds. The reported endpoint is percent growth (GI% or GIPRCNT), where numbers from 0 - 100% represent growth inhibition, and numbers from -100% - 0 represent cell death. For example, a value of 40 represents 60% growth inhibition. […]
Compounds without any hit were thinned out: in the full panel of roughly 83,000, 20% have a hit.
growth strictly under 90% means Y; at 90% or over means N.

>  <compound>
CN1CCC2(CC1)C(C#N)C(=O)NC(=O)C2C#N (stereo not drawn)

>  <class_label>
N

$$$$
>  <compound>
c1ccc2c(c1)O[As](O[As]1Oc3ccccc3O1)O2

>  <class_label>
Y

$$$$
>  <compound>
CC[C@H](C)[C@H](NC(=O)[C@H]1CCCCN1C)C(=O)N(C)[C@H](C[C@@H](OC(C)=O)c1nc(C(=O)N[C@@H](Cc2ccccc2)C[C@H](C)C(=O)O)cs1)C(C)C

>  <class_label>
Y

$$$$
>  <compound>
CC1(C)S[C@H]2CC[C@H]3OC(=O)[C@@H]1N23

>  <class_label>
N

$$$$
>  <compound>
C=C[Se]CC(=O)/C=C/c1ccccc1

>  <class_label>
Y

$$$$
>  <compound>
CCOC(=O)C1C(C=C(C)C)C1(C)C (stereo not drawn)

>  <class_label>
N

$$$$
>  <compound>
COc1ccc2c(c1)c(-c1nc(-c3c[nH]c4ncccc34)cs1)cn2CCCCN1CCOCC1

>  <class_label>
Y

$$$$
>  <compound>
CC(=O)c1cccc(S(=O)(=O)F)c1

>  <class_label>
N

$$$$
>  <compound>
NC(N)=NC(N)=Nc1ccc(Cl)cc1

>  <class_label>
N

$$$$
>  <compound>
OCCN=Cc1c[nH]c2ccccc12

>  <class_label>
N

$$$$
>  <compound>
Nc1ccc2c(c1)Cc1cc(N)ccc1-2

>  <class_label>
N

$$$$
>  <compound>
N#CC(NC(=O)CCl)=C(Cl)Cl

>  <class_label>
Y

$$$$
>  <compound>
N#CC(C#N)=Cc1cccc(F)c1

>  <class_label>
N

$$$$
>  <compound>
COc1cc(/C=C\[N+](=O)[O-])ccc1OCc1ccccc1

>  <class_label>
Y

$$$$
>  <compound>
CC/C(=C(\c1ccc(OCCN2CCOCC2)cc1)c1ccc(OC(=O)Cc2ccccc2)cc1)c1ccc(Cl)cc1

>  <class_label>
N

$$$$
>  <compound>
O=c1[nH]c(=O)[nH]c(=O)[nH]1

>  <class_label>
N

$$$$
>  <compound>
C[N+]12CCC34C5=CC(=O)C(=O)C=C5[N+]5(C)C(=O)CC6OCC=C(C1)C(CC32)C6C45 (stereo not drawn)

>  <class_label>
N

$$$$
>  <compound>
CCC(Br)(CC)C(=O)NC(N)=O

>  <class_label>
N

$$$$
>  <compound>
COC(=O)[C@@H](C)C[C@H](Cc1ccccc1)NC(=O)c1cccc([C@@H](C[C@H](C(C)C)N(C)C(=O)[C@@H](NC(=O)[C@H]2CCCCN2C)C2CC2)OC(C)=O)n1

>  <class_label>
Y

$$$$
>  <compound>
CC[C@H](C)[C@H](NC(=O)[C@H]1CCCCN1C)C(=O)N(C)[C@H](C[C@@H](OC(C)=O)c1cccc(C(=O)N[C@@H](Cc2ccccc2)C[C@H](C)C(=O)OC)n1)C(C)C

>  <class_label>
Y

$$$$
>  <compound>
O=c1c2ccccc2nc(-c2ccccc2Cl)n1-c1nnc(C(F)(F)F)s1

>  <class_label>
Y

$$$$
>  <compound>
CC(=O)Nc1nc2c(s1)C1=CC[C@H]3[C@@H]4CC[C@H](OC(C)=O)[C@@]4(C)CC[C@@H]3[C@@]1(C)CC2

>  <class_label>
N

$$$$
>  <compound>
C[N+]1(CC#CC[N+]2(C)CCCC2)CCCC1

>  <class_label>
N

$$$$
>  <compound>
CC[C@H](C)[C@H](NC(=O)c1cnccn1)C(=O)N(C)[C@H](C[C@@H](OC(C)=O)c1nc(C(=O)N[C@@H](Cc2ccccc2)C[C@H](C)C(=O)OC)cs1)C(C)C

>  <class_label>
Y

$$$$

----------
Test system: HT29 colon
experiment_summary: NCI-60 one-dose screen, 48 h (100 = growth as untreated, 0 = no growth, -100 = all killed)
test_parameters: 10 µM unless noted
Protocol: Growth inhibition of the HT29 human tumor cell line is measured as a screen for anti-cancer activity. Cells are grown in 96 well plates and exposed to the test compound for 48 hours. Compounds are tested at a single concentration, which is 10^-5 M for most compounds. The reported endpoint is percent growth (GI% or GIPRCNT), where numbers from 0 - 100% represent growth inhibition, and numbers from -100% - 0 represent cell death. For example, a value of 40 represents 60% growth inhibition. […]
This is part of a sample that, as a whole, favours compounds with a hit. Of some 83,000 tested, about 20% had one in any assay.

>  <compound>
O=C(O)C1C(C(=O)O)C2(Cl)C(Cl)=C(Cl)C1(Cl)C2(Cl)Cl (stereo not given)

>  <growth [%]>
103

$$$$
>  <compound>
NC(=O)Oc1cc(OC(N)=O)cc(N(CCCl)CCCl)c1

>  <growth [%]>
64.1

$$$$
>  <compound>
N#CCC(=O)c1ccccc1

>  <growth [%]>
110

$$$$
>  <compound>
Cc1ccc(S(=O)(=O)n2cc([C@@]3(O)C[C@H](CSC#N)OC3=O)c3ccccc32)cc1

>  <growth [%]>
54.3

$$$$
>  <compound>
CC12CCC3C(CCC4CC(O)CCC43C)C1CCC2=O (stereo not given)

>  <growth [%]>
102

$$$$
>  <compound>
NC1CN2CCC1CC2 (stereo not given)

>  <growth [%]>
99.8

$$$$
>  <compound>
CNC(=O)CCl

>  <growth [%]>
102

$$$$
>  <compound>
C[C@]12CCc3sc(Nc4ccc(O)cc4)nc3C1=CC[C@@H]1[C@@H]2CC[C@]2(C)C(=O)CC[C@@H]12

>  <growth [%]>
10.3

$$$$
>  <compound>
CC1=C([Te]c2ccccc2)C(=O)c2ccccc2C1=O

>  <growth [%]>
-22.7

$$$$
>  <compound>
Cc1cc(N(CCCl)CCCl)ccc1C=Nc1ccc(-c2csc(-c3ccccc3)n2)cc1

>  <growth [%]>
112

$$$$
>  <compound>
[N-]=[N+]=CC(=O)CCC(=O)C=[N+]=[N-]

>  <growth [%]>
107

$$$$
>  <compound>
CCOC(=O)C1C(C=C(C)C)C1(C)C (stereo not given)

>  <growth [%]>
116

$$$$
>  <compound>
C[N+]1(C)CCCC1c1cccnc1 (stereo not given)

>  <growth [%]>
102

$$$$
>  <compound>
C[C@H](O)CCC(=O)c1ccoc1

>  <growth [%]>
106

$$$$
>  <compound>
COc1ccc2c(c1)c(-c1nc(-c3cn(C)c4ncccc34)cs1)cn2CCCCN1CCOCC1

>  <growth [%]>
-87.8

$$$$
>  <compound>
O=P(O)(Nc1ccccc1)Nc1ccccc1

>  <growth [%]>
94.3

$$$$
>  <compound>
c1ccc2c(c1)O[As](O[As]1Oc3ccccc3O1)O2

>  <growth [%]>
24.8

$$$$
>  <compound>
C=CC[PH+](c1ccccc1)c1ccccc1.C=CC[PH+](c1ccccc1)c1ccccc1.[Pt+2].[S-]c1nc2ccccc2[nH]1.[S-]c1nc2ccccc2[nH]1

>  <growth [%]>
-30.4

$$$$
>  <compound>
CC[C@H](C)[C@H](NC(=O)[C@H]1CCCCN1C)C(=O)N(C)[C@H](C(=O)NC12CC(C(=O)N[C@@H](Cc3ccccc3)C[C@H](C)C(=O)OC)(C1)C2)C(C)C

>  <growth [%]>
87.3

$$$$
>  <compound>
ClCc1ccc(Cl)c(Cl)c1

>  <growth [%]>
109

$$$$
